# Tested on: L02
# method.summary: Cytotoxicity against human HL7702 cells assessed as reduction in cell viability incubated for 48 hrs by MTT assay
# Type: cell-based
# recorded.conditions: L02, 48 h
Give measured pIC50 for each item. Keep answers brief.
Numbers only, as −log10 of the molar value.

Completed entries (count: 3):
COc1cc2c(cc1OC)-c1nc3ccc(F)cc3c(NCCCN(C)C)c1C2 = 5.51
COc1cc2c(cc1OC)-c1nc3ccc(Br)cc3c(NCCN(C)C)c1C2 = 5.16
CN(C)CCNc1c2c(nc3ccc(Cl)cc13)-c1ccccc1C2 = 5.44

Provide pIC50 for all items below, preserving their order.
1. Fc1ccc2nc3c(c(NCCCN4CCOCC4)c2c1)Cc1ccccc1-3
2. COc1cc2c(cc1OC)-c1nc3ccc(Cl)cc3c(NCCN(C)C)c1C2

A)
[5.52, 5.59]

Give measured pIC50 for every item shown.
1. Clc1ccc2nc3c(c(NCCCN4CCOCC4)c2c1)Cc1ccccc1-3
2. COc1cc2c(cc1OC)-c1nc3ccccc3c(NCCCN(C)C)c1C2
3. CN(C)CCNc1c2c(nc3ccc(F)cc13)-c1ccccc1C2
4. Cc1ccc2nc3c(c(NCCN(C)C)c2c1)Cc1ccccc1-3
5. CN(C)CCCNc1c2c(nc3ccc(Br)cc13)-c1ccccc1C2
6. CN(C)CCCNc1c2c(nc3ccc(Cl)cc13)-c1ccccc1C2

A)
[5.15, 5.36, 5.49, 5.94, 5.79, 5.64]

Would you be so kind as to report pIC50 for each listed record?
1. COc1cc2c(cc1OC)-c1nc3ccc(C)cc3c(NCCCN3CCOCC3)c1C2
2. COc1cc2c(cc1OC)-c1nc3ccccc3c(NCCN(C)C)c1C2
3. COc1cc2c(cc1OC)-c1nc3ccc(Br)cc3c(NCCCN(C)C)c1C2
4. COc1cc2c(cc1OC)-c1nc3ccc(Br)cc3c(NCCCN3CCOCC3)c1C2

A)
[5.11, 5.69, 5.15, 5.30]

Hey, can you go through the list below and give me pIC50 for every item?
1. CN(C)CCNc1c2c(nc3ccc(Br)cc13)-c1ccccc1C2
2. CN(C)CCCNc1c2c(nc3ccc(F)cc13)-c1ccccc1C2
3. COc1cc2c(cc1OC)-c1nc3ccc(C)cc3c(NCCN(C)C)c1C2
4. COc1cc2c(cc1OC)-c1nc3ccc(Cl)cc3c(NCCCN3CCOCC3)c1C2
5. CC[C@@]1(O)C(=O)OCc2c1cc1n(c2=O)Cc2cc3ccccc3nc2-1

A)
1. 5.19
2. 5.80
3. 5.52
4. 5.42
5. 5.67

Each of the following entries comes with a recorded value; kindly state pIC50 for each.
1. COc1cc2c(cc1OC)-c1nc3ccc(C)cc3c(NCCCN(C)C)c1C2
2. COc1cc2c(cc1OC)-c1nc3ccccc3c(NCCCN3CCOCC3)c1C2

A)
1: 5.31; 2: 5.30
